Tested on: HCT-15
For each record, write down the corresponding GI50.
Answers are plain numbers, in µM.

Answered examples (8):
>>> result_number("COc1cc(S(=O)(=O)Nc2nc(-c3ccc(N4C(=O)C(CC(=O)O)SC4c4cccs4)cc3)cs2)ccc1Cl (stereo unspecified)")
19.9
>>> result_number("C/C(Cl)=N/OC(=O)Nc1ccc(F)c([N+](=O)[O-])c1")
5.94
>>> result_number("C[C@]12CC[C@H]3[C@@H](CCC4=CC(=O)CC[C@@]43C)[C@@H]1CC[C@@H]2OC(=O)c1cccc2c(=O)c3ccccc3[nH]c12")
37.6
>>> result_number("Cc1ccc(S(=O)(=O)NNC(=O)c2sc(-c3nc(C)c(C(=O)NNS(=O)(=O)c4ccc(C)cc4)s3)nc2C)cc1")
47.1
>>> result_number("CN(CCS(=O)(=O)N1C(=O)C2CCCN2C(=O)[C@@H]1Cc1ccccc1)C(=O)OCc1ccccc1 (stereo partly specified)")
58.6
>>> result_number("COc1ccc(-c2coc3c4c(ccc3c2=O)OCO4)cc1OC")
18
>>> result_number("COC(=O)C[C@](O)(CCC(C)(C)O)C(=O)O[C@@H]1C(OC)=C[C@]23CCCN2CCc2cc4c(cc2[C@H]13)OCO4 [HARRINGTONINE]")
0.379
>>> result_number("Cc1c(C(=O)CC(=O)C(=O)Nc2cccc(C(F)(F)F)c2)[n+]([O-])c2ccccc2[n+]1[O-]")
3.31

For each of the compounds below, state GI50.
1. O=C1/C(=C/c2ccc3c(c2)OCCO3)CCC/C1=C\c1ccc2c(c1)OCCO2
2. COc1cc(/C=C2\N=C(c3ccccc3)N(/N=C/c3cc4cc(C)ccc4nc3Cl)C2=O)ccc1O
3. O=C(NO)c1ccc(O)c(O)c1
4. O=c1sc(-c2nc3ccccc3[nH]2)c(/N=C/c2ccccc2)n1-c1ccccc1
5. COC1=CC2(CC(OC)=C1OC)OC21COc2ccccc2C1=O (stereo unspecified)

Result:
24.5
40.1
98.4
74.1
65.8
